tested on: receptor labeled by the radioiodinated analogue of 1 (4, [125I]-YLFQPQRF-NH2); neuropeptide FF receptor; assay: Competitive radioligand binding against 4 ([125I]Y8F-amide); details: mixture-based positional scanning; difference from averaged radioligand displacement of whole library (0); about 80 a.u. = 10-fold change in Ki
Peptide text beside a SMILES is read from it. * marks the point of attachment. Dansyl = CN(C)c1cccc2c(S(=O)(=O)*)cccc12
property: Relative Binding Index (RBI) (a.u.)

{"compound": "C[C@@H](O)[C@H](NS(=O)(=O)c1cccc2c(N(C)C)cccc12)C(=O)N1CCC[C@H]1C(=O)N[C@@H](CCCNC(=N)N)C(N)=O [Dansyl-TPR-amide] (Dansyl-Thr-Pro-Arg-NH2)", "property": "Relative Binding Index (RBI)", "readout-unit": "a.u.", "number": "−5"}
{"compound": "CN(C)c1cccc2c(S(=O)(=O)N[C@@H](CCCNC(=N)N)C(=O)N[C@@H](Cc3c[nH]c4ccccc34)C(=O)N[C@@H](CCCNC(=N)N)C(N)=O)cccc12 [Dansyl-RWR-amide] (Dansyl-Arg-Trp-Arg-NH2)", "property": "Relative Binding Index (RBI)", "readout-unit": "a.u.", "number": 16}
{"compound": "CN(C)c1cccc2c(S(=O)(=O)N[C@@H](CCCNC(=N)N)C(=O)N[C@@H](Cc3c[nH]cn3)C(=O)N[C@@H](CCCNC(=N)N)C(N)=O)cccc12 [Dansyl-RHR-amide] (Dansyl-Arg-His-Arg-NH2)", "property": "Relative Binding Index (RBI)", "readout-unit": "a.u.", "number": 1}
{"compound": "CC(C)[C@H](NC(=O)[C@H](Cc1ccc(O)cc1)NS(=O)(=O)c1cccc2c(N(C)C)cccc12)C(=O)N[C@@H](CCCNC(=N)N)C(N)=O [Dansyl-YVR-amide] (Dansyl-Tyr-Val-Arg-NH2)", "property": "Relative Binding Index (RBI)", "readout-unit": "a.u.", "number": 2}
{"compound": "CC(C)C[C@H](NS(=O)(=O)c1cccc2c(N(C)C)cccc12)C(=O)N1CCC[C@H]1C(=O)N[C@@H](CCCNC(=N)N)C(N)=O [Dansyl-LPR-amide] (Dansyl-Leu-Pro-Arg-NH2)", "property": "Relative Binding Index (RBI)", "readout-unit": "a.u.", "number": "−29"}

====

system: receptor labeled by the radioiodinated analogue of 1 (4, [125I]-YLFQPQRF-NH2); neuropeptide FF receptor; experiment: Competitive radioligand binding against 4 ([125I]Y8F-amide); conditions: mixture-based positional scanning; difference from averaged radioligand displacement of whole library (0); about 80 a.u. = 10-fold change in Ki
Peptide text beside a SMILES is read from it. * marks the point of attachment. Dansyl = CN(C)c1cccc2c(S(=O)(=O)*)cccc12

{"molecule": "CC(C)[C@H](NS(=O)(=O)c1cccc2c(N(C)C)cccc12)C(=O)N[C@@H](Cc1cnc[nH]1)C(=O)N[C@@H](CCCNC(=N)N)C(N)=O [Dansyl-VHR-amide] (Dansyl-Val-His-Arg-NH2)", "readout-unit": "a.u.", "Relative Binding Index (RBI)": "−10"}
{"molecule": "CN(C)c1cccc2c(S(=O)(=O)N[C@@H](CC(N)=O)C(=O)N[C@@H](Cc3c[nH]cn3)C(=O)N[C@@H](CCCNC(=N)N)C(N)=O)cccc12 [Dansyl-NHR-amide] (Dansyl-Asn-His-Arg-NH2)", "readout-unit": "a.u.", "Relative Binding Index (RBI)": 7}
{"molecule": "C[C@H](NS(=O)(=O)c1cccc2c(N(C)C)cccc12)C(=O)N[C@@H](CCCCN)C(=O)N[C@@H](CCCNC(=N)N)C(N)=O [Dansyl-AKR-amide] (Dansyl-Ala-Lys-Arg-NH2)", "readout-unit": "a.u.", "Relative Binding Index (RBI)": 10}
{"molecule": "CN(C)c1cccc2c(S(=O)(=O)N[C@@H](Cc3ccc(O)cc3)C(=O)N[C@@H](Cc3ccc(O)cc3)C(=O)N[C@@H](CCCNC(=N)N)C(N)=O)cccc12 [Dansyl-YYR-amide] (Dansyl-Tyr-Tyr-Arg-NH2)", "readout-unit": "a.u.", "Relative Binding Index (RBI)": 6}
{"molecule": "CC(C)[C@H](NC(=O)[C@@H]1CCCN1S(=O)(=O)c1cccc2c(N(C)C)cccc12)C(=O)N[C@@H](CCCNC(=N)N)C(N)=O [Dansyl-PVR-amide] (Dansyl-Pro-Val-Arg-NH2)", "readout-unit": "a.u.", "Relative Binding Index (RBI)": "−53"}
{"molecule": "CN(C)c1cccc2c(S(=O)(=O)NCC(=O)N[C@@H](CCCCN)C(=O)N[C@@H](CCCNC(=N)N)C(N)=O)cccc12 [Dansyl-GKR-amide] (Dansyl-Gly-Lys-Arg-NH2)", "readout-unit": "a.u.", "Relative Binding Index (RBI)": 23}
{"molecule": "CN(C)c1cccc2c(S(=O)(=O)N[C@@H](CC(N)=O)C(=O)N[C@@H](Cc3c[nH]c4ccccc34)C(=O)N[C@@H](CCCNC(=N)N)C(N)=O)cccc12 [Dansyl-NWR-amide] (Dansyl-Asn-Trp-Arg-NH2)", "readout-unit": "a.u.", "Relative Binding Index (RBI)": 22}
{"molecule": "CN(C)c1cccc2c(S(=O)(=O)N[C@@H](Cc3ccc(O)cc3)C(=O)N[C@@H](CCC(N)=O)C(=O)N[C@@H](CCCNC(=N)N)C(N)=O)cccc12 [Dansyl-YQR-amide] (Dansyl-Tyr-Gln-Arg-NH2)", "readout-unit": "a.u.", "Relative Binding Index (RBI)": 21}
{"molecule": "CN(C)c1cccc2c(S(=O)(=O)N[C@@H](Cc3c[nH]c4ccccc34)C(=O)N[C@@H](CCC(=O)O)C(=O)N[C@@H](CCCNC(=N)N)C(N)=O)cccc12 [Dansyl-WER-amide] (Dansyl-Trp-Glu-Arg-NH2)", "readout-unit": "a.u.", "Relative Binding Index (RBI)": 9}
{"molecule": "CN(C)c1cccc2c(S(=O)(=O)N[C@@H](Cc3ccc(O)cc3)C(=O)N[C@@H](CC(N)=O)C(=O)N[C@@H](CCCNC(=N)N)C(N)=O)cccc12 [Dansyl-YNR-amide] (Dansyl-Tyr-Asn-Arg-NH2)", "readout-unit": "a.u.", "Relative Binding Index (RBI)": 8}
{"molecule": "CN(C)c1cccc2c(S(=O)(=O)N[C@@H](Cc3ccccc3)C(=O)N[C@@H](CCCCN)C(=O)N[C@@H](CCCNC(=N)N)C(N)=O)cccc12 [Dansyl-FKR-amide] (Dansyl-Phe-Lys-Arg-NH2)", "readout-unit": "a.u.", "Relative Binding Index (RBI)": 7}
{"molecule": "CN(C)c1cccc2c(S(=O)(=O)N[C@@H](Cc3c[nH]c4ccccc34)C(=O)N3CCC[C@H]3C(=O)N[C@@H](CCCNC(=N)N)C(N)=O)cccc12 [Dansyl-WPR-amide] (Dansyl-Trp-Pro-Arg-NH2)", "readout-unit": "a.u.", "Relative Binding Index (RBI)": 12}
{"molecule": "CC(C)C[C@H](NS(=O)(=O)c1cccc2c(N(C)C)cccc12)C(=O)N[C@H](C(=O)N[C@@H](CCCNC(=N)N)C(N)=O)C(C)C [Dansyl-LVR-amide] (Dansyl-Leu-Val-Arg-NH2)", "readout-unit": "a.u.", "Relative Binding Index (RBI)": "−37"}
{"molecule": "CSCC[C@H](NC(=O)[C@H](CC(N)=O)NS(=O)(=O)c1cccc2c(N(C)C)cccc12)C(=O)N[C@@H](CCCNC(=N)N)C(N)=O [Dansyl-NMR-amide] (Dansyl-Asn-Met-Arg-NH2)", "readout-unit": "a.u.", "Relative Binding Index (RBI)": 13}
{"molecule": "C[C@@H](O)[C@H](NS(=O)(=O)c1cccc2c(N(C)C)cccc12)C(=O)N[C@@H](CCC(N)=O)C(=O)N[C@@H](CCCNC(=N)N)C(N)=O [Dansyl-TQR-amide] (Dansyl-Thr-Gln-Arg-NH2)", "readout-unit": "a.u.", "Relative Binding Index (RBI)": 5}

Origin of values: patent US6960574B2
